- target: Human FAAH (Homo sapiens, UniProt O00519)
- Construct: made in house
- Sequence (O00519 whole entry): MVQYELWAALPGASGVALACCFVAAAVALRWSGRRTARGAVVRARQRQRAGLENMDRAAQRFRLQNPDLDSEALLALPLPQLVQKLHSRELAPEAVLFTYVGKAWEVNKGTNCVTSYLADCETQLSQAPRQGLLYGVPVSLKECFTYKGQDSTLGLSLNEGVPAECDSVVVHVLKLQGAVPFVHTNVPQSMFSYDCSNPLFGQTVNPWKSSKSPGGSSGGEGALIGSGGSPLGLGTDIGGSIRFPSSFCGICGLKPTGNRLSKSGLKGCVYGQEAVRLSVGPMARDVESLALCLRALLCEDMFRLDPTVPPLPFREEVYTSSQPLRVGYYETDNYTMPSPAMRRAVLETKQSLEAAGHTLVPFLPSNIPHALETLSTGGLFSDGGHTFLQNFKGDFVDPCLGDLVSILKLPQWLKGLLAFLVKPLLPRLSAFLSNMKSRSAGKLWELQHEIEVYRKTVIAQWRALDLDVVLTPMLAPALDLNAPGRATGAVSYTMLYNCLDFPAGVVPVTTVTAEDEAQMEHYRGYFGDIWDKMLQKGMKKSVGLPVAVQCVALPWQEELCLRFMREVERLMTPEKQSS
- protocol-notes: FAAH enzyme assay (glutamate dehydrogenase coupled, oleamide substrate), irreversible inhibition kinetics
- Assay type: biochemical
- condition-label: human FAAH, 30° C., pH 7.4
I would appreciate it if you labelled entries true (1) when hFAAH Kinact/Ki is 5000 M⁻¹ s⁻¹ or higher, otherwise false (0).

INSERT INTO results (compound, classification) VALUES
  ('CC1CN(C(=O)Nc2cccnn2)CC/C1=C\c1cccc(Oc2ccc(C(F)(F)F)cn2)c1 (single isomer, unassigned) [Example 2]', 'false (0)');

query: Decide: hFAAH Kinact/Ki of CC1CN(C(=O)Nc2cccnc2)CC/C1=C\c1cccc(Oc2ccc(C(F)(F)F)cn2)c1 (single isomer, unassigned) [Example 4] >= 5000 M⁻¹ s⁻¹?
result: false (0)

query: Assess whether reported hFAAH Kinact/Ki for CC1CN(C(=O)Nc2cccnc2)CC/C1=C\c1cccc(Oc2ncc(C(F)(F)F)cn2)c1 (single isomer, unassigned) [Example 16] sits at 5000 M⁻¹ s⁻¹ or higher.
result: true (1)

query: Exam item: decide whether the reported hFAAH Kinact/Ki for CC1CN(C(=O)Nc2cccnn2)CC/C1=C\c1cccc(Oc2ccc(C(F)(F)F)cn2)c1 (single isomer, unassigned) [Example 1] is at least 5000 M⁻¹ s⁻¹.
result: false (0)

query: Determine whether this compound has hFAAH Kinact/Ki no lower than 5000 M⁻¹ s⁻¹: CC1CN(C(=O)Nc2cccnc2)CC/C1=C\c1cccc(Oc2ncc(C(F)(F)F)cn2)c1 (single isomer, unassigned) [Example 17]
result: false (0)
